assay: Long-term storage stability of antibiotics in combination with fosfomycin spiked in plasma/CAMHB (−30 °C, −80 °C); format: physicochemical; details: CAMHB, combination with fosfomycin, 4 weeks at -80 °C; LQC (nominal as E13)
assay_endpoint: Mean accuracy (%), Table S18

compound | assay_endpoint | unit_tag | readout_number
CO/N=C(\C(=O)N[C@@H]1C(=O)N2C(C(=O)[O-])=C(C[N+]3(C)CCCC3)CS[C@H]12)c1csc(N)n1 [Cefepime, cefepime] | Mean accuracy (%), Table S18 | % | 107.6
CN(C)c1cc(NC(=O)CNC(C)(C)C)c(O)c2c1C[C@H]1C[C@H]3[C@H](N(C)C)C(O)=C(C(N)=O)C(=O)[C@@]3(O)C(O)=C1C2=O | Mean accuracy (%), Table S18 | % | 87.6
C[C@@H](O)[C@H]1C(=O)N2C(C(=O)O)=C(S[C@@H]3CN[C@H](CNS(N)(=O)=O)C3)[C@H](C)[C@H]12 | Mean accuracy (%), Table S18 | % | 99.1
C[C@@H]1O[C@@H]1P(=O)(O)O | Mean accuracy (%), Table S18 | % | 104.7
NC(=O)[C@@H]1CC[C@@H]2CN1C(=O)N2OS(=O)(=O)O | Mean accuracy (%), Table S18 | % | 103.0
C[C@]1(Cn2ccnn2)[C@H](C(=O)O)N2C(=O)C[C@H]2S1(=O)=O | Mean accuracy (%), Table S18 | % | 105.4
C[C@@H](O)[C@H]1C(=O)N2C(C(=O)O)=C(S[C@@H]3CN[C@H](C(=O)N(C)C)C3)[C@H](C)[C@H]12 | Mean accuracy (%), Table S18 | % | 97.9
Cn1c(N)c(NC(=O)NCCN)c[n+]1CC1=C(C(=O)O)N2C(=O)[C@@H](NC(=O)/C(=N\OC(C)(C)C(=O)[O-])c3nsc(N)n3)[C@H]2SC1 | Mean accuracy (%), Table S18 | % | 87.5
CCN1CCN(C(=O)N[C@@H](C(=O)N[C@@H]2C(=O)N3[C@@H]2SC(C)(C)[C@@H]3C(=O)O)c2ccccc2)C(=O)C1=O | Mean accuracy (%), Table S18 | % | 109.4
CC(C)(O/N=C(\C(=O)N[C@@H]1C(=O)N2C(C(=O)[O-])=C(C[n+]3ccccc3)CS[C@H]12)c1csc(N)n1)C(=O)O | Mean accuracy (%), Table S18 | % | 103.5
C[C@H]1[C@H](NC(=O)/C(=N\OC(C)(C)C(=O)O)c2csc(N)n2)C(=O)N1S(=O)(=O)O | Mean accuracy (%), Table S18 | % | 109.7
